Reference source for all entries: patent US20250059220A1

biological target: human PTPN2 (1-387) (Homo sapiens (Human), UniProt P17706)
Sequence (P17706 other isoform, or with tags, fused parts or gaps): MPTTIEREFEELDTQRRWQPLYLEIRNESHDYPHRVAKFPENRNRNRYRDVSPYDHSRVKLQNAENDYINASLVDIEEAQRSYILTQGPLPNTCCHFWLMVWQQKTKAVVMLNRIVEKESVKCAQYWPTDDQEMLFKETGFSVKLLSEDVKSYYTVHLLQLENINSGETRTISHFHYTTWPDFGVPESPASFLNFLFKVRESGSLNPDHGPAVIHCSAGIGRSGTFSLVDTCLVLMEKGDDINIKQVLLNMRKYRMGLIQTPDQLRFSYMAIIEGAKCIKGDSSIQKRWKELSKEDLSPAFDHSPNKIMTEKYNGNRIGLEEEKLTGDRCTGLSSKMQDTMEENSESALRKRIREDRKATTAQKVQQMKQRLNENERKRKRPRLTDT
pIC50: −log10 of the molar value.
Mark rule met for reported pIC50 of 6 or greater; mark rule not met for anything smaller.

N#Cc1c(C(F)(F)P(=O)(O)O)sc2c(OCCCS(N)(=O)=O)cc(-c3c[nH]nn3)cc12 ... rule met
CC1CCS(=O)(=O)C1CCOc1cc(C(N)=O)cc2c(Br)c(C(F)(F)P(=O)(O)O)sc12 (single isomer, unassigned) [Compound 395] ... rule met
Cc1c[nH]c(CNC(=O)c2ccc3sc(C(F)(F)P(=O)(O)O)c(Br)c3c2)c(C)c1=O ... rule not met
CCC(NC(=O)c1ccc2sc(C(F)(F)P(=O)(O)O)c(Br)c2c1)c1ccccn1 (centres unmarked) ... rule not met
O=C(NCCSC(F)(F)F)c1ccc2sc(C(F)(F)P(=O)(O)O)c(Br)c2c1 ... rule not met
NC(=O)c1cc(OC[C@H]2C[C@H](S(N)(=O)=O)C2)c2sc(C(F)(F)P(=O)(O)O)c(Br)c2c1 ... rule met

Request: API: above_or_equal(metric=pIC50, cutoff=6) for item NC(=O)c1cc(OCc2ccc(-c3cncnc3)cc2)c2sc(C(F)(F)P(=O)(O)O)c(Br)c2c1
Result: rule met

Request: Would you say O=C(NC(CO)c1ccccn1)c1ccc2sc(C(F)(F)P(=O)(O)O)c(Br)c2c1 (centres unmarked) shows pIC50 at minimum 6?
Result: rule not met

Request: I'd appreciate it if you could say whether NC(=O)c1cc(OCC(F)CC(F)(F)F)c2sc(C(F)(F)P(=O)(O)O)c(Br)c2c1 (centres unmarked) has pIC50 at least equal to 6.
Result: rule met

Request: API: above_or_equal(metric=pIC50, cutoff=6) for item CC(C)CCOc1cc(C(N)=O)cc2c(Br)c(C(F)(F)P(=O)(O)O)sc12
Result: rule met

Request: Please tell me: is the compound N#Cc1c(C(F)(F)P(=O)(O)O)sc2c(OCCCC(F)(F)F)cc(C(N)=O)cc12 at or over 6 in terms of pIC50?
Result: rule met

---

Reported pIC50 values for a set of molecules
target: human PTPN2 (1-387) (Homo sapiens (Human)); assay: Human PTPN2 Biochemical Assay; conditions: DiFMUP substrate
// scale note: pIC50 = -log10(conc_M); give the bare number

N#Cc1cc(C(=O)NCc2c[nH]nn2)cc2c(Br)c(C(F)(F)P(=O)(O)O)sc12 ... 6.65
CC(C)C1CC(CNC(=O)c2ccc3sc(C(F)(F)P(=O)(O)O)c(Br)c3c2)C1 (stereo not drawn) ... 5.36

response.value for NC(=O)c1cc(OCCC(F)(F)C(F)(F)C(F)F)c2sc(C(F)(F)P(=O)(O)O)c(Br)c2c1 (field: pIC50) = 7.57

---

This listing pairs compounds with measured IC50.
molecular target: human PTPN1 (1-435) (Homo sapiens (Human), UniProt P18031)
Sequence (P18031 whole entry): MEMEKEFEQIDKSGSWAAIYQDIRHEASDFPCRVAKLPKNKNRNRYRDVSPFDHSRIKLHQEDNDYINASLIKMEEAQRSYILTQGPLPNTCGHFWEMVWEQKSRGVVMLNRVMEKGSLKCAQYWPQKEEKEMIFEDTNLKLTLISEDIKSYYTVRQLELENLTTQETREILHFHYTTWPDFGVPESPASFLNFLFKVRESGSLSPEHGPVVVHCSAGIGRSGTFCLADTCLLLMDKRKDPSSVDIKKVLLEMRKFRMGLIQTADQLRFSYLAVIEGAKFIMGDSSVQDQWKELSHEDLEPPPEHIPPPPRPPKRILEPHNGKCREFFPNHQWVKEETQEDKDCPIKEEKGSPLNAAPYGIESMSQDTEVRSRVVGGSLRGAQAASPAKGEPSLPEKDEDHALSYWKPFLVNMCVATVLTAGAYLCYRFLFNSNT
The figure you give is taken to be in µM; do not add the unit.

Param item: O=C(NCc1ccc[n+]([O-])c1)c1ccc2sc(C(F)(F)P(=O)(O)O)c(Br)c2c1 ; param system: human PTPN1 (1-435) (Homo sapiens (Human), UniProt P18031); output IC50: 2.4

---

target: human PTPN2 (1-387) (Homo sapiens (Human), UniProt P17706)
So basically: is IC50 under 600 nM? Then 1 (yes). Not under? Then 0 (no).

Cc1ccc(COc2cc(C(N)=O)cc3c(Br)c(C(F)(F)P(=O)(O)O)sc23)c(C)c1 ... 1 (yes)
CCCC(CO)Oc1cc(C(N)=O)cc2c(Br)c(C(F)(F)P(=O)(O)O)sc12 (stereo not drawn) ... 1 (yes)
O=P(O)(O)C(F)(F)c1sc2c(OCCCC(F)(F)F)cc(-c3cnn[nH]3)cc2c1Br ... 1 (yes)
O=C(NCc1cnc2[nH]ccc2c1)c1ccc2sc(C(F)(F)P(=O)(O)O)c(Br)c2c1 ... 0 (no)
O=C(NC(c1cccnc1)C(F)(F)F)c1ccc2sc(C(F)(F)P(=O)(O)O)c(Br)c2c1 (single isomer, unassigned) [Compound 222a] ... 0 (no)

Request: API: query returns whether the compound falls strictly under 600 nM in IC50. Query: CS(=O)(=O)c1ccc(COc2cc(-c3cnn[nH]3)cc3c(Br)c(C(F)(F)P(=O)(O)O)sc23)cc1
Result: 1 (yes)

Request: Does NC(=O)c1cc(OCc2ccc(CS(N)(=O)=O)cc2)c2sc(C(F)(F)P(=O)(O)O)c(Br)c2c1 have IC50 strictly under 600 nM?
Result: 1 (yes)

Request: Threshold test, IC50 < 600 nM: Cn1cnc(CNC(=O)c2ccc3sc(C(F)(F)P(=O)(O)O)c(Br)c3c2)c1
Result: 0 (no)

Request: # TODO verify IC50 < 600 nM strictly for this compound: O=P(O)(O)C(F)(F)c1sc2c(NCCCC(F)(F)F)cccc2c1Br
Result: 0 (no)

---

target: human PTPN1 (1-435) (Homo sapiens (Human), UniProt P18031)
compounds and their reported pIC50
The quantity pIC50 is defined as the negative base-10 logarithm of the molar concentration.

N#Cc1c(C(F)(F)P(=O)(O)O)sc2ccc(C(=O)NC3CC(F)(F)C3)cc12 ... 5.84
CNC(=O)c1cc(OCCCS(C)(=O)=O)c2sc(C(F)(F)P(=O)(O)O)c(C#N)c2c1 ... 7.93
CCc1noc(CNC(=O)c2ccc3sc(C(F)(F)P(=O)(O)O)c(Br)c3c2)n1 ... 5.68

Known value: human PTPN1 (1-435) (Homo sapiens (Human), UniProt P18031) pIC50 of the compound Cn1nncc1CNC(=O)c1ccc2sc(C(F)(F)P(=O)(O)O)c(Br)c2c1 equals 5.50

Param item: O=C(NCc1cnn2ccccc12)c1ccc2sc(C(F)(F)P(=O)(O)O)c(Br)c2c1 ; param system: human PTPN1 (1-435) (Homo sapiens (Human), UniProt P18031); output pIC50: 5.70

Value sought: pIC50, system human PTPN1 (1-435) (Homo sapiens (Human), UniProt P18031), item N#Cc1cc(Cl)ccc1COc1cc(C(N)=O)cc2c(Br)c(C(F)(F)P(=O)(O)O)sc12 . Result: 7.03

Log: human PTPN1 (1-435) (Homo sapiens (Human), UniProt P18031), compound COc1ccc(COc2cc(C(N)=O)cc3c(Br)c(C(F)(F)P(=O)(O)O)sc23)cc1C(F)(F)F , pIC50 = 6.88

---

pIC50 for assorted compounds
target: human PTPN1 (1-435) (Homo sapiens (Human))
// pIC50: -log10(molar conc.)

Please review the entries below; each comes with its answer.
CN(C)C(=O)c1cc(OCCCC(F)(F)F)c2sc(C(F)(F)P(=O)(O)O)c(Br)c2c1 [Compound 204] ... 5.84
O=C(NCCC1CC1)c1ccc2sc(C(F)(F)P(=O)(O)O)c(Br)c2c1 [Compound 59] ... 5.86
O=C(NCc1cnsn1)c1ccc2sc(C(F)(F)P(=O)(O)O)c(Br)c2c1 [Compound 188] ... 6.15

// compound Cc1cnc(F)c(CNC(=O)c2ccc3sc(C(F)(F)P(=O)(O)O)c(Br)c3c2)c1 [Compound 183] , assay human PTPN1 (1-435) (Homo sapiens (Human)), pIC50 value: 5.85

---

In what follows, each item is paired with its IC50 for human PTPN2 (1-387) (Homo sapiens (Human)).
Write down the numeric answer in µM and omit the unit.

Some entries whose results are on file:
CS(=O)(=O)NCCCOc1cc(C(N)=O)cc2c(Br)c(C(F)(F)P(=O)(O)O)sc12 [Compound 256] ... 0.128
N=C(N)c1cc(OCCCC(F)(F)F)c2sc(C(F)(F)P(=O)(O)O)c(Br)c2c1 [Compound 262] ... 0.113

# NC(=O)c1cc(OCCC2CC2(F)F)c2sc(C(F)(F)P(=O)(O)O)c(Br)c2c1 (stereo not drawn) [Compound 286] with human PTPN2 (1-387) (Homo sapiens (Human)): IC50 is 0.0769

---

// endpoint IC50 / system human PTPN2 (1-387) (Homo sapiens (Human))
State the answer as a number, implicitly in nM.

Some solved cases for reference:
O=C(NCc1c[nH]nn1)c1cc(F)c2sc(C(F)(F)P(=O)(O)O)c(Br)c2c1 ... 390
N#CC1(c2ccc(NC(=O)c3ccc4sc(C(F)(F)P(=O)(O)O)c(Br)c4c3)cc2)CCCCC1 ... 2140
NC(=O)CCCCOc1cc(C(N)=O)cc2c(Br)c(C(F)(F)P(=O)(O)O)sc12 ... 77.9

We now examine a further compound.
Observed IC50 on human PTPN2 (1-387) (Homo sapiens (Human)), entry NC(=O)c1cc(OCCCS(N)(=O)=O)c2sc(C(F)(F)P(=O)(O)O)c(Br)c2c1 , equals 16.6
